SYSTEM_NAME: Muscarinic acetylcholine receptor M1 (Homo sapiens) (UniProt P11229)
Sequence (P11229 whole entry, looked up): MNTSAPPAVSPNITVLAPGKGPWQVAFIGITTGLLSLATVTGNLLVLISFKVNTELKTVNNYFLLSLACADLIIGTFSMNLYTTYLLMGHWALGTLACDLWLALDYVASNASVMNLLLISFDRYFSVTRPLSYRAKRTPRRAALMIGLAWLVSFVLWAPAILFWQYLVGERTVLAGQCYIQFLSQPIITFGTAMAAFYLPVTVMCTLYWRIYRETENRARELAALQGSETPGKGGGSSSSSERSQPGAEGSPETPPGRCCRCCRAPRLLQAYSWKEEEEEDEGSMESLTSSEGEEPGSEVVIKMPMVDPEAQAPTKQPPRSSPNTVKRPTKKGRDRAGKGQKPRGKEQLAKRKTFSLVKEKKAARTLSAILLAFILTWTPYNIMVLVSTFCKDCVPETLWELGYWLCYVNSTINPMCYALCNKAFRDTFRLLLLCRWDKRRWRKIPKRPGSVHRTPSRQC
PROTOCOL_NOTES: Cholinergic receptor muscarinic 1 (CHRM1) small molecule agonists, cell-based qHTS assay (AID 1963589); also: % is scaled to controls: 0 for no effect and ±100 for the full control effect; nearly all actives have a fitted effect of over 35% in size
RUN_PARAMETERS: CHRM1-CHO cells, agonist mode, calcium flux fluorescence; series mostly up to 76.8 µM
The source made the active and inactive calls. Calls follow the shape of the full dose curve.
OBSERVATION_TYPE: activation

Check out these entries, answers already filled in.
CCSCC = inactive
CC[C@@]1(c2ccccc2)NC(=O)N(C)C1=O = inactive
Oc1ccc(C2(c3ccc(O)c(C4CCCCC4)c3)CCCCC2)cc1C1CCCCC1 = inactive
CCOC(=O)CC(C)C = inactive
N=C1N=C(N)c2cc3ccccc3cc21 = inactive

Okay, now this compound:
Field activation (entry O=C(Nc1ccc(S(=O)(=O)N2CCOCC2)cc1)c1cc(Cl)ccc1NS(=O)(=O)c1ccc(Cl)s1 ) reads inactive

====

SYSTEM_NAME: 5-hydroxytryptamine receptor 2A (Homo sapiens) (UniProt P28223)
Sequence (P28223 whole entry, looked up): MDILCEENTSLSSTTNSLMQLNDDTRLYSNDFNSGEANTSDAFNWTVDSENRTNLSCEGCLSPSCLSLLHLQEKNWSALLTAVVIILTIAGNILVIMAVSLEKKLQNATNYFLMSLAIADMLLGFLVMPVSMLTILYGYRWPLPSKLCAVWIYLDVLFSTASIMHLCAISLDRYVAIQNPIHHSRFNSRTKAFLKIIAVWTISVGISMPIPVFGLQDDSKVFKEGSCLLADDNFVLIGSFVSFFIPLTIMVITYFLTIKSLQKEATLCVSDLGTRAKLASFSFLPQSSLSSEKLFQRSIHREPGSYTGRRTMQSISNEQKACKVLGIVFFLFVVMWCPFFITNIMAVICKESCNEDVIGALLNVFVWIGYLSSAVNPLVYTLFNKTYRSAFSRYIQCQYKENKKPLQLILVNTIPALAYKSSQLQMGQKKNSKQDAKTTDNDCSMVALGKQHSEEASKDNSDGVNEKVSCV
PROTOCOL_NOTES: 5-hydroxytryptamine receptor 2A (HTR2A) small molecule antagonists, cell-based qHTS assay (AID 1963586); also: nearly all actives have a fitted effect of over 45% in size
RUN_PARAMETERS: HTR2A-CHO cells, DOI-induced calcium flux, fluorescence; series mostly up to 61.5 µM
Inconclusive results are not listed. The source made the active and inactive calls. Calls follow the shape of the full dose curve.
A correct response names exactly one class from true (1) for active, false (0) for inactive

Worked examples follow.
Cc1ccc([N+](=O)[O-])cc1Cl = false (0)
Nc1ccc(N=Nc2ccccc2)c(N)c1 = true (1)
Cc1ccc(Cl)cc1N = false (0)
O=[N+]([O-])c1cccc(C(F)(F)F)c1 = false (0)

Record lookup: outcome of this test for CCC[Si](OC)(OC)OC ?
false (0)

For Cc1c(C(=O)NN2CCCCC2)nn(-c2ccc(Cl)cc2Cl)c1-c1ccc(Cl)cc1 , what call appears in the results of this test?
false (0)

What did this assay record as the result for O=C(O)c1cc(Br)c(O)c(Br)c1 ?
false (0)

====

SYSTEM_NAME: Gonadotropin-releasing hormone receptor (Homo sapiens) (UniProt P30968)
Sequence (P30968 whole entry, looked up): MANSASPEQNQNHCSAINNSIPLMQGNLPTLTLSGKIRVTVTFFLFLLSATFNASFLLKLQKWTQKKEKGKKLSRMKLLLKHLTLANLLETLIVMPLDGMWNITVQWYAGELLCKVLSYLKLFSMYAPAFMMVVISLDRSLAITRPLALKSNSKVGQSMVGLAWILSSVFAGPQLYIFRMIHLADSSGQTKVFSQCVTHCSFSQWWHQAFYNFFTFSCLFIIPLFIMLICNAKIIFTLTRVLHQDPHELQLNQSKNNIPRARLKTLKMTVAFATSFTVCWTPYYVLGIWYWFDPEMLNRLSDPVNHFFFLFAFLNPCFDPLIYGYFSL
PROTOCOL_NOTES: Human gonadotropin-releasing hormone receptor (GnRHR) small molecule agonists, calcium flux assay in GnRHR-HEK293 cells (AID 1920063); also: potency is read from the fitted curve at half-maximal effect; nearly all actives have a fitted effect of over 35% in size
RUN_PARAMETERS: calcium flux fluorescence, agonist mode; series mostly up to 57.6 µM
Active and inactive are the calls of the source. Calls come from the whole dose curve.
OBSERVATION_TYPE: Potency

The examples below pair each entry with its known result.
O=C(N[C@@H](c1ccccc1)[C@@H]1CCCCN1)c1cccc(C(F)(F)F)c1Cl = 38.9 µM (active)
CCCCCCCCOC(=O)c1cc(O)c(O)c(O)c1 = 34.7 µM (active)
CC(=O)NCCCS(=O)(=O)O = 15 µM (active)
O=C1OC2(c3ccc(O)cc3Oc3cc(O)ccc32)c2ccc(N=C=S)cc21 = 14.1 µM (active)
C[N+](C)(C)CCOC(N)=O = 2.39 µM (active)
Cc1ccc(S(=O)(=O)C(I)I)cc1 = 38.9 µM (active)
OCc1cc(C(O)CNCCCCCCOCCCCc2ccccc2)ccc1O (stereo unspecified) = 0.0301 µM (active)
CC(=O)OC(C)C[N+](C)(C)C (stereo unspecified) = 1.07 µM (active)

The measured Potency associated with CNCCC(Oc1ccc(C(F)(F)F)cc1)c1ccccc1 (stereo unspecified) reads 38.4 µM (active)

O=C1OC2(c3ccccc31)c1ccc(O)c(Br)c1Oc1c2ccc(O)c1Br yielded Potency of 13.8 µM (active)

Lookup result for CC1=Nc2ccc3ccccc3c2C1(C)C ; measured Potency: 38.9 µM (active)

Per the records, this compound ( CCN(CC)c1ccc2c(-c3ccccc3C(=O)O)c3ccc(=[N+](CC)CC)cc-3oc2c1 ) has Potency equal to 34.7 µM (active)

Potency recorded for this compound, Nc1ccn(C2CO[C@H](CO)O2)c(=O)n1 (stereo partly specified) , is 4.25 µM (active)

Lab note: measured Potency of CNCC(O)c1ccc(O)c(O)c1 (stereo unspecified) was 0.0425 µM (active)

The recorded Potency for entry CC(C)c1ccc2c(c1)CC[C@H]1[C@](C)(CN)CCC[C@]21C equals 11 µM (active)

Query Nc1ccc2c3c(cccc13)-c1ccccc1-2 yields Potency of 35.1 µM (active)

====

SYSTEM_NAME: KiSS-1 receptor (Homo sapiens)
PROTOCOL_NOTES: Human kisspeptin (KISS1R) small molecule agonists, calcium flux assay in KISS1R-HEK293 cells (AID 1920064); also: % is scaled to controls: 0 for no effect and ±100 for the full control effect
RUN_PARAMETERS: KISS1R-HEK293, calcium flux fluorescence, agonist; series mostly up to 76.8 µM
Calls of active or inactive are those of the source. The call rests on the fitted dose curve; in most records, active means well fitted activation curve with a large enough effect in the repeat runs; inconclusive means weak or mixed curves; inactive means flat fitted curve, though single readings scatter.
OBSERVATION_TYPE: activation

Use the examples below as a reference point.
CC(=O)c1ccc(C)cc1 = inactive
FC1(F)C(F)(F)C(F)(F)C2(F)C(F)(F)C(F)(F)C(F)(F)C(F)(F)C2(F)C1(F)F (stereo not drawn) = inactive
NC(=O)Nc1nc2ccccc2[nH]1 = inactive
Cc1ccccc1 = inactive
Nc1ccccn1 = inactive

GET /value?item= O=C(O)[C@H](O)c1ccccc1 &field=activation returns inactive

// O=C=NC1CCC(CC2CCC(N=C=O)CC2)CC1 (stereo not drawn) : activation value = inactive

In plain terms, CCOC(=O)Nc1ccc2c(c1)N(C(=O)CCN1CCOCC1)c1ccccc1S2 has a documented activation of inactive

activation recorded for this molecule, Nc1c(Cl)cc(Cl)cc1[N+](=O)[O-] , is inactive

// CN1CCC(Nc2ncc3ncnc(Nc4ccc(F)c(Cl)c4)c3n2)CC1 : activation value = inactive

Record O=C(Nc1ccc2c(c1)Cc1ccccc1-2)C(F)(F)F . Reported activation: inactive

Consider C=C(C)[C@@H]1CC=C(C)CC1 . Its measured activation is inactive

Reported activation of CCCc1ncc(C[n+]2ccccc2C)c(N)n1 : inactive

====

SYSTEM_NAME: Beta-2 adrenergic receptor (Homo sapiens) (UniProt P07550)
Sequence (P07550 whole entry, looked up): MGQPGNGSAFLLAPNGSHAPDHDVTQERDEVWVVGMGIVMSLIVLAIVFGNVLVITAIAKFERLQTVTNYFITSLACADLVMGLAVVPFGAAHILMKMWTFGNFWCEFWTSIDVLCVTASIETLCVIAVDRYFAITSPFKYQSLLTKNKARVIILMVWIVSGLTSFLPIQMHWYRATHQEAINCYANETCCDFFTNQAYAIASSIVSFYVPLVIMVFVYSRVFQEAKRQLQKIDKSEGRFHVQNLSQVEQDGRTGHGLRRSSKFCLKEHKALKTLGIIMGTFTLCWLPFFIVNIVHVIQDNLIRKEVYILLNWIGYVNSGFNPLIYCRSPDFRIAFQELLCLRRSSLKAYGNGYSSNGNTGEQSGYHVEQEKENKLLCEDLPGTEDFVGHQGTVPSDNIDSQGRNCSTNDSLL
PROTOCOL_NOTES: Adrenergic beta2 receptor (ADRB2) small molecule antagonists, cell-based qHTS assay (AID 1963592); also: % is scaled to controls: 0 for no effect and ±100 for the full control effect; nearly all actives have a fitted effect of over 50% in size
RUN_PARAMETERS: CHO-ADRB2 cells, isoproterenol-stimulated cAMP HTRF ratio, 0.5 h; series mostly up to 92.4 µM
Results filed as inconclusive are left out. The source made the active and inactive calls. Calls follow the shape of the full dose curve.
OBSERVATION_TYPE: activity change, negative = inhibition

Sample answers from the record:
Cc1[nH]c(C)c(Cl)c(=O)c1Cl = -0.0462% [at 19 µM] (inactive)
CC1CN(c2cc3c(cc2F)c(=O)c(C(=O)O)cn3-c2ccc(F)cc2F)CCN1 (stereo not given) = 4.5% [at 8.39 µM] (inactive)
COc1cc2ncnc(Nc3cccc(Cl)c3)c2cc1OC = -2.49% [at 19 µM] (inactive)
c1cc2ccc3ccc4ccc5cccc6c(c1)c2c3c4c56 = 4.76% [at 3.27 µM] (inactive)
Nc1ccc(/C=C/c2ccc(N)cc2S(=O)(=O)O)c(S(=O)(=O)O)c1 = -6.48% [at 0.349 µM] (inactive)
NC[C@H]1O[C@H](O[C@H]2[C@H](O)[C@@H](O[C@H]3O[C@H](CO)[C@@H](O)[C@H](N)[C@H]3O)[C@H](N)C[C@@H]2N)[C@H](O)[C@@H](O)[C@@H]1O = 0.292% [at 8.39 µM] (inactive)

activity change, negative = inhibition reading for O=C(O)CN(CCOCCOCCN(CC(=O)O)CC(=O)O)CC(=O)O : 0.881% [at 0.349 µM] (inactive)

Record Nc1ccc2c(c1)CN1C(=O)c3ccccc3C1=N2 . Reported activity change, negative = inhibition: -18.2% [at 19 µM] (inactive)

Data point: CCCCCCCCCCCCCOC(=O)CCSCCC(=O)OCCCCCCCCCCCCC ; activity change, negative = inhibition = -0.103% [at 19 µM] (inactive)

Lab note: C=C/C=C/C=C/CCCCC gave activity change, negative = inhibition of 4.38% [at 19 µM] (inactive)

====

PROTOCOL_NOTES: Nuclear factor erythroid 2-related factor 2/antioxidant responsive element (Nrf2/ARE) small molecule agonists: luciferase reporter gene qHTS assay in human keratinocytes (AID 1919969); also: nearly all actives have a fitted effect of over 35% in size
RUN_PARAMETERS: KeratinoSens HaCaT ARE-luciferase, luminescence, 24 h; series mostly up to 92.4 µM
Excerpt: National Center for Advancing Translational Sciences [NCATS] Division of Preclinical Innovation [DPI] U.S. Environmental Protection Agency [EPA] National Institutes of Environmental Health Sciences [NIEHS] National Toxicology Program [NTP] […] Oxidative stress has been implicated in the pathogenesis of a variety of diseases ranging from cancer to neurodegeneration. […] The activation of the report gene under culture conditions can be detected by ONE-Glo Luciferase Assay System (Promega, Madison, WI). […]
Inconclusive results are not listed. Activity calls are given as the source filed them. Calls come from the whole dose curve.
Your response should consist of one outcome taken from active, inactive

CC1(C)O[C@@H]2C[C@H]3[C@@H]4C[C@H](F)C5=CC(=O)C=C[C@]5(C)[C@H]4[C@@H](O)C[C@]3(C)[C@]2(C(=O)CO)O1 = inactive
OC(CCN1CCCCC1)(c1ccccc1)C1CCCCC1 (stereo not drawn) = inactive

Record lookup: outcome of this test for CN(C)[C@@H]1C(=O)C(C(N)=O)=C(O)[C@@]2(O)C(=O)C3=C(O)c4c(O)cccc4C[C@H]3C[C@@H]12 ?
inactive

Which outcome was entered for the molecule COc1ccc(S(=O)(=O)N2C(=O)[C@@](c3ccccc3OC)(N3C[C@H](O)C[C@H]3C(=O)N(C)C)c3cc(Cl)ccc32)c(OC)c1 in this test?
inactive

Test call for this molecule, please: O=C(Nc1ccccc1)OCC(CN1CCCCC1)OC(=O)Nc1ccccc1 (stereo not drawn)
inactive

Returns: the outcome recorded for COc1cc(C)cc(O)c1 in this assay.
inactive

Can you look up the reported call for Cc1cc2nc(N)sc2cc1C for me?
inactive

Field: outcome | Entry: CC[N+](CC)(CC)CCOc1ccc(/C=C/c2ccccc2)cc1
inactive

Test call for this molecule, please: ClCCOCCOCCCl
inactive

Record lookup: outcome of this test for O=C(O)/C=C(\CC(=O)O)C(=O)O ?
inactive

Could you check what this test reported for Cc1cc(O)c2c(c1)C(=O)c1cc(O)cc(O)c1C2=O ?
active

Could you check what this test reported for CC(C)NCC(O)COc1cccc2[nH]ccc12 (stereo not drawn) ?
inactive

Just curious, what result did C1C2OC2C2C1C1CC2C2OC12 (stereo not drawn) get here?
inactive

// return assay outcome for CC(C)C[C@H]1C(=O)N2CCC[C@H]2[C@]2(O)O[C@](NC(=O)[C@@H]3C=C4c5cccc6[nH]c(Br)c(c56)C[C@H]4N(C)C3)(C(C)C)C(=O)N12
inactive

Lab log entry: O=C1C=CC(=O)N1c1ccc(Cc2ccc(N3C(=O)C=CC3=O)cc2)cc1 — outcome as called in the assay?
active
